- ASSAY_CONDITIONS: human, in vivo, iv, 6 mg/kg
ENDPOINT_LABEL: clearance (mL/min/kg)
Please reply with the bare figure in mL/min/kg and do not write the unit itself.

Annotate the compound CCCCCCCCCC(=O)N[C@@H](Cc1c[nH]c2ccccc12)C(=O)N[C@H](CC(N)=O)C(=O)N[C@@H](CC(=O)O)C(=O)N[C@@H]1C(=O)NCC(=O)N[C@@H](CCCN)C(=O)N[C@@H](CC(=O)O)C(=O)N[C@H](C)C(=O)N[C@@H](CC(=O)O)C(=O)NCC(=O)N[C@H](CO)C(=O)N[C@@H]([C@H](C)CC(=O)O)C(=O)N[C@@H](CC(=O)c2ccccc2N)C(=O)O[C@@H]1C with its measured clearance.
0.35
